Where do the numbers come from? From patent US20220403048A1.

assay.target: T1, biotinylated recombinant human trimeric ARG2 enzyme (Avi-huARG2-His10) (human, UniProt P78540 23-354, biotinylated)
T1 construct: also called avi-Arg2-His10; bio-ARG2
T1 chain: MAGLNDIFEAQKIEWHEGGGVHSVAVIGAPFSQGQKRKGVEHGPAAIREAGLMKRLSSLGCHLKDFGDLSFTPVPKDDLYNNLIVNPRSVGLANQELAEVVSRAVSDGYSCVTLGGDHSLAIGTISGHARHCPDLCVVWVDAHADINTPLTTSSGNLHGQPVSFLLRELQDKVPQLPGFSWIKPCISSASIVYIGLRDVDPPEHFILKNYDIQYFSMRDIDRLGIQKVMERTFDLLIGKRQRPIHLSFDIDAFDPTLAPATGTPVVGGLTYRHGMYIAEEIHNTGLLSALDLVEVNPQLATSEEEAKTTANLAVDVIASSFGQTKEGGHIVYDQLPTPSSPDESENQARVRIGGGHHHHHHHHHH
assay.notes: BLI (OctetRED) extended assay, bio-ARG2 on streptavidin, Fab as analyte, 1:1 fit
Parameter kon: see the listing below.
endpoint: kon (M⁻¹ s⁻¹)

binder	unit.spec	observed.result
C0021177 Fab (Fab, V domains shown, Human Fab) VH: EVQLLESGGGLVQPGGSLRLSCAASGFTFRYEVAAWVRQAPGKGLEWVSAISGPAPKGYYADSVKGRFTISRDNSKNTLYLQMNSLRAEDTAVYYCARLRADLGLYMDLWGRGTLVTVSS VL: QSELTQPPTASAAPGQKVTISCSGSSSNIGNHYVSWYQQLPGTAPKLLIYDTTVLSSGIPDRFSGSKSGTSATLGITGLQTGDEADYYCGTWDELTSNLVFGGGTKLTVL	M⁻¹ s⁻¹	202000
C0021144 Fab (Fab, V domains shown, Human Fab) VH: EVQLLESGGGLVQPGGSLRLSCAASGFTFRYDYHVWVRQAPGKGLEWVSAISGSGGSTYYADSVKGRFTISRDNSKNTLYLQMNSLRAEDTAVYYCARLRADLGLYMDLWGRGTLVTVSS VL: QSVLTQPPSVSAAPGQKVTVSCSGSSSNIGNHHVSWYQQLPGTAPKLLIYDTTVLSSGVPDRFSGSKSGTSATLGITGLQTGDEADYYCGTWDELTSNLVFGGGTKLTVL	M⁻¹ s⁻¹	195000
C0021158 Fab (Fab, V domains shown, Human Fab) VH: EVQLLESGGGLVQPGGSLRLSCAASGFTFRYEVAAWVRQAPGKGLEWVSAISGPIPKGYYADSVKGRFTISRDNSKNTLYLQMNSLRAEDTAVYYCARLRADLGLYMDLWGRGTLVTVSS VL: QSVLTQPPSVSAAPGQKVTISCSGSSSNIGNHYVSWYQQLPGTAPKLLIYDNSERTAGVPDRFSGSKSGTSATLGITGLQTGDEADYYCGTWDELTSNLVFGGGTKLTVL	M⁻¹ s⁻¹	262000
